Biological target: PRMT3 (Homo sapiens, UniProt O60678)
Sequence (O60678 211-531): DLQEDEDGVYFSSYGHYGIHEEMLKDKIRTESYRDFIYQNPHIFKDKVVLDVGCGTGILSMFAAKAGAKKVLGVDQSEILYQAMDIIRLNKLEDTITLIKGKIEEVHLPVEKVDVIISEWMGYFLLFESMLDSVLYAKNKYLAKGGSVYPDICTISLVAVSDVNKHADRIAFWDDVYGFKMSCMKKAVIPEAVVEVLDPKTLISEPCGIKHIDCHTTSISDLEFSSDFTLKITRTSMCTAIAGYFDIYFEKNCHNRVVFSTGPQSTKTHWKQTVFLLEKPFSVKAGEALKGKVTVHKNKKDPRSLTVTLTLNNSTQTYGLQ
Assay: SAHH-coupled fluorescence assay, inhibition of PRMT3
Type: biochemical
Design: PRMT3 (residues 211-531) was cloned into the pET28a-MHL expression vector; tag of the pET28a-MHL vector (not described); made in house; host or cells: Escherichia coli BL21(DE3)
valueType: inhibition at 10 µM (%)

{"molecule": "Nc1ncnc2c1ncn2[C@@H]1O[C@H](CSCCCNC(=O)NCc2ccccc2)[C@@H](O)[C@H]1O", "target": "PRMT3 (Homo sapiens, UniProt O60678)", "reported": 13}
{"molecule": "CCNC(=O)NCCSC[C@H]1O[C@@H](n2cnc3c(N)ncnc32)[C@H](O)[C@@H]1O", "target": "PRMT3 (Homo sapiens, UniProt O60678)", "reported": 4}
{"molecule": "N=C(NCCSC[C@H]1O[C@@H](n2cnc3c(N)ncnc32)[C@H](O)[C@@H]1O)Nc1cccc(-c2ccc(C(F)(F)F)cc2)c1", "target": "PRMT3 (Homo sapiens, UniProt O60678)", "reported": 42}

(1) Nc1ncnc2c1ncn2[C@@H]1O[C@H](CSCCNC(=O)NCCc2ccccc2)[C@@H](O)[C@H]1O
(2) Nc1ncnc2c1ncn2[C@@H]1O[C@H](CSCCNCc2cccc(-c3ccc(Cl)cc3)c2)[C@@H](O)[C@H]1O [Compound 10a]
Which of the two items, 1 and 2 , has the greater recorded inhibition at 10 µM? Identify your selection by its label.
2
(2: 16%, 1: 6%)

(A) N=C(NCCCSC[C@H]1O[C@@H](n2cnc3c(N)ncnc32)[C@H](O)[C@@H]1O)Nc1cccc(-c2cncnc2)c1
(B) Nc1ncnc2c1ncn2[C@@H]1O[C@H](CSCCNCc2cccc(-c3ccncc3)c2)[C@@H](O)[C@H]1O [Compound 10k]
(C) N=C(NCCCSC[C@H]1O[C@@H](n2cnc3c(N)ncnc32)[C@H](O)[C@@H]1O)Nc1cccc(-c2ccc(C(F)(F)F)cc2)c1
(D) N=C(NCCSC[C@H]1O[C@@H](n2cnc3c(N)ncnc32)[C@H](O)[C@@H]1O)Nc1cccc(-c2cccc(F)c2)c1
Please list these in order of increasing inhibition at 10 µM. Thank you! State the ranking by listing the labels in the requested order.
A, B, D, C
(A: 5%, B: 10%, D: 26%, C: 57%)

---

Target: PRMT6 (Homo sapiens)
Sequence (Q96LA8 whole entry, species assumed): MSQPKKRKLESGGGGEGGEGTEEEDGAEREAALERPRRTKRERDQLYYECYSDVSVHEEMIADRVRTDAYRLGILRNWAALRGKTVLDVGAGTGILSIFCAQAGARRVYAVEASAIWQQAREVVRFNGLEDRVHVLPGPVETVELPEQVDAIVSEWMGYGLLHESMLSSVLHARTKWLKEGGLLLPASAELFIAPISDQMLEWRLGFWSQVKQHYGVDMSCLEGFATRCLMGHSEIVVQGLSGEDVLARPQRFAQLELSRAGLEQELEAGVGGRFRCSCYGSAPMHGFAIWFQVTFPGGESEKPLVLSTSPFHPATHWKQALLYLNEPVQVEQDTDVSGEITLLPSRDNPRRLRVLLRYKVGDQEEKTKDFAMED
Assay: radioactive assay (Reaction Biology Corp.), inhibition of PRMT6
Type: biochemical
Protocol: Next, the inhibition activity of the library was investigated for five PRMT members from type I PRMTs. The PRMT 4, 6 and 8 methylation assays were performed by Reaction Biology corp.
valueType: inhibition at 10 µM (%)

Field: example entries. Status: answers known.
{"molecule": "Nc1ncnc2c1ncn2[C@@H]1O[C@H](CSCCNC(=O)NCc2ccc(-c3ccccc3O)cc2)[C@@H](O)[C@H]1O [Compound 8e]", "inhibition at 10 µM, %": -2}
{"molecule": "N=C(NCCCSC[C@H]1O[C@@H](n2cnc3c(N)ncnc32)[C@H](O)[C@@H]1O)Nc1cccc(-c2cccnc2)c1 [Compound 6m]", "inhibition at 10 µM, %": 93}
{"molecule": "N=C(NCCCSC[C@H]1O[C@@H](n2cnc3c(NCCCc4ccccc4)ncnc32)[C@H](O)[C@@H]1O)NC1CCC1 [Compound 19c]", "inhibition at 10 µM, %": 93}
{"molecule": "N=C(NCCCSC[C@H]1O[C@@H](n2cnc3c(NCCCc4ccccc4)ncnc32)[C@H](O)[C@@H]1O)NCCCc1ccccc1 [Compound 19m]", "inhibition at 10 µM, %": 83}
{"molecule": "Nc1ncnc2c1ncn2[C@@H]1O[C@H](CSCCOc2ccc(-c3ccc(Cl)cc3)cc2)[C@@H](O)[C@H]1O [Compound 14a]", "inhibition at 10 µM, %": -4}

(1) Nc1ncnc2c1ncn2[C@@H]1O[C@H](CSCCNC(=O)Nc2ccccc2)[C@@H](O)[C@H]1O [Compound 7f]
(2) N=C(NCCCSC[C@H]1O[C@@H](n2cnc3c(N)ncnc32)[C@H](O)[C@@H]1O)Nc1cccc(-c2ccc(C(F)(F)F)cc2)c1 [Compound 6h]
Pick one: 1 or 2 . Which has the bigger inhibition at 10 µM number? Answer = label.
2

---

Molecular target: PRMT1 (Homo sapiens, UniProt Q99873)
Construct: made in house
Sequence (Q99873 whole entry, species assumed): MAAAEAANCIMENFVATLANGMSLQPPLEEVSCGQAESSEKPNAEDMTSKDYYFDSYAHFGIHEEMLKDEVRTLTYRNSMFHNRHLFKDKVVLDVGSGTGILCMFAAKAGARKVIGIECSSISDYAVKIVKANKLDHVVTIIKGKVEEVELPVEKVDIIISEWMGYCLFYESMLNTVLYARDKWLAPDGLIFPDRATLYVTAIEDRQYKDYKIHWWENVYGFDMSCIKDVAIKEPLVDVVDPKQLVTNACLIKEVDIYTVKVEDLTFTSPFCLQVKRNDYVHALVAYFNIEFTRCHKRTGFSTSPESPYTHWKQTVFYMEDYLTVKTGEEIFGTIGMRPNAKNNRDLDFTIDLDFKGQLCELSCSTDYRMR
Assay: SAHH-coupled fluorescence assay, inhibition of PRMT1
Type: biochemical

{"compound": "N=C(NCCCSC[C@H]1O[C@@H](n2cnc3c(NCc4cn(Cc5ccccc5)nn4)ncnc32)C(O)[C@H]1O)Nc1cccc(Br)c1 (stereo in doubt) [YD1-254]", "PRMT1 inhibition": "PRMT1 inhibitors"}
{"compound": "N=C(NCCCSC[C@H]1O[C@@H](n2cnc3c(NCC#Cc4ccc(O)cc4)ncnc32)C(O)[C@H]1O)Nc1cccc(Br)c1 (stereo in doubt) [YD1-250]", "PRMT1 inhibition": "PRMT1 inhibitors"}
{"compound": "N=C(NCCCSC[C@H]1O[C@@H](n2cnc3c(NCC#Cc4ccccc4)ncnc32)[C@H](O)[C@@H]1O)Nc1cccc(Br)c1 [YD1-248]", "PRMT1 inhibition": "PRMT1 inhibitors"}

---

Biological target: PRMT3 (Homo sapiens)
Assay: SAHH-coupled fluorescence assay, inhibition of PRMT3
Assay type: biochemical
Design: PRMT3 (residues 211-531) was cloned into the pET28a-MHL expression vector; tag of the pET28a-MHL vector (not described); made in house; host or cells: Escherichia coli BL21(DE3)
valueType: inhibition at 10 µM (%)

# annotated cases, reported inhibition at 10 µM shown
{"compound": "N=C(NCCCSC[C@H]1O[C@@H](n2cnc3c(N)ncnc32)[C@H](O)[C@@H]1O)Nc1cccc(-c2ccc(F)cc2F)c1", "valueType": "inhibition at 10 µM", "reported": 50}
{"compound": "Nc1ncnc2c1ncn2[C@@H]1O[C@H](CSCCNCc2cccc(Br)c2)[C@@H](O)[C@H]1O", "valueType": "inhibition at 10 µM", "reported": 8}

(P) N=C(NCCSC[C@H]1O[C@@H](n2cnc3c(N)ncnc32)[C@H](O)[C@@H]1O)Nc1ccccc1
(Q) Nc1ncnc2c1ncn2[C@@H]1O[C@H](CSCCOc2ccc(-c3ccc(O)cc3)cc2)[C@@H](O)[C@H]1O [Compound 14b]
Task for the reader: decide whether P or Q has the larger inhibition at 10 µM. Returns: label corresponding to the selected item.
Q
(Q: 6%, P: 1%)

---

Target: PRMT3 (Homo sapiens)
Test: SAHH-coupled fluorescence assay, inhibition of PRMT3
Assay type: biochemical
Parameters: PRMT3 (residues 211-531) was cloned into the pET28a-MHL expression vector; tag of the pET28a-MHL vector (not described); made in house; host or cells: Escherichia coli BL21(DE3)
Method: A fluorescence-based SAHH-coupled assay was applied to study the inhibition activity of all synthesized compounds on PRMT 1 and 3. The PRMT3 methylation assay was performed under the following conditions in a final well volume of 100 μL: 20 mM Tris (pH=7.5), 0.01% Triton X-100, 5 μM SAHH, 0.25 μM PRMT3, 30 μM AdoMet, and 15 μM ThioGlo4. […] Fluorescence was monitored on a BMG CLARIOstar microplate reader with excitation 380 nm and emission 505 nm. […]
valueType: inhibition at 10 µM (%)

Please review the following examples before continuing.
{"molecule": "Nc1ncnc2c1ncn2[C@@H]1O[C@H](CSCCCNC(=O)NCc2ccc3c(c2)OCO3)[C@@H](O)[C@H]1O", "valueType": "inhibition at 10 µM", "reported": 5}
{"molecule": "Nc1ncnc2c1ncn2[C@@H]1O[C@H](CSCCNCc2cccc(-c3cccc4cn[nH]c34)c2)[C@@H](O)[C@H]1O [Compound 10h]", "valueType": "inhibition at 10 µM", "reported": 12}
{"molecule": "Nc1ccc(-c2ccc(CNC(=O)NCCSC[C@H]3O[C@@H](n4cnc5c(N)ncnc54)[C@H](O)[C@@H]3O)cc2)cc1", "valueType": "inhibition at 10 µM", "reported": 3}
{"molecule": "Nc1ncnc2c1ncn2[C@@H]1O[C@H](CSCCOc2ccc(-c3ccncc3)cc2)[C@@H](O)[C@H]1O [Compound 14h]", "valueType": "inhibition at 10 µM", "reported": 8}
{"molecule": "N=C(NCCCSC[C@H]1O[C@@H](n2cnc3c(NCCCc4ccccc4)ncnc32)[C@H](O)[C@@H]1O)Nc1ccccc1 [Compound 19j]", "valueType": "inhibition at 10 µM", "reported": 2}

(1) N=C(NCCSC[C@H]1O[C@@H](n2cnc3c(N)ncnc32)[C@H](O)[C@@H]1O)NCc1ccccc1
(2) Nc1ncnc2c1ncn2[C@@H]1O[C@H](CSCCNCc2cccc(-c3ccc(C(F)(F)F)cc3)c2)[C@@H](O)[C@H]1O [Compound 10e]
(3) N=C(NCCCSC[C@H]1O[C@@H](n2cnc3c(NCCCc4ccccc4)ncnc32)[C@H](O)[C@@H]1O)NC1CCCCC1 [Compound 19e]
Arrange items by their inhibition at 10 µM values in increasing order. To answer, arrange all of the labels according to the requested order.
3, 2, 1
(3: 10%, 2: 15%, 1: 57%)

(I) Nc1ncnc2c1ncn2[C@@H]1O[C@H](CSCCNCc2cccc(-c3cccc(O)c3)c2)[C@@H](O)[C@H]1O [Compound 10i]
(II) Nc1ncnc2c1ncn2[C@@H]1O[C@H](CSCCCNCc2cccc(-c3ccc(F)c(O)c3)c2)[C@@H](O)[C@H]1O [Compound 10r]
(III) N=C(NCCCSC[C@H]1O[C@@H](n2cnc3c(N)ncnc32)[C@H](O)[C@@H]1O)Nc1cccc(-c2ccoc2)c1
(IV) Nc1ncnc2c1ncn2[C@@H]1O[C@H](CSCCNC(=O)Nc2ccccc2)[C@@H](O)[C@H]1O
Your job: order these 4 records by inhibition at 10 µM, ascending. Please list the labels according to the requested order.
I, II, III, IV

(P) Nc1ncnc2c1ncn2[C@@H]1O[C@H](CSCCNC(=O)NCc2ccc(-c3cn[nH]c3)cc2)[C@@H](O)[C@H]1O
(Q) N=C(NCCCSC[C@H]1O[C@@H](n2cnc3c(N)ncnc32)[C@H](O)[C@@H]1O)Nc1cccc(-c2cccc(F)c2)c1
Form: Entry with minimum inhibition at 10 µM (choose one): P / Q Returns: label corresponding to the selected item.
P
(P: 10%, Q: 45%)
